biological target: Gal-3 FL (full-length human Gal-3, residues 1–250) (Homo sapiens); construct: Full-length human Gal-3 (residues 1–250); made in house; assay: 1H-15N HSQC NMR titration of 15N-labeled full-length Gal-3; format: binding; conditions: fast exchange; from chemical shifts vs ligand concentration; Gal-3 FL 20 μM, pH 6.9, 30 °C; read-out: KD
Sequence (P17931 whole entry, the tested form may be a part): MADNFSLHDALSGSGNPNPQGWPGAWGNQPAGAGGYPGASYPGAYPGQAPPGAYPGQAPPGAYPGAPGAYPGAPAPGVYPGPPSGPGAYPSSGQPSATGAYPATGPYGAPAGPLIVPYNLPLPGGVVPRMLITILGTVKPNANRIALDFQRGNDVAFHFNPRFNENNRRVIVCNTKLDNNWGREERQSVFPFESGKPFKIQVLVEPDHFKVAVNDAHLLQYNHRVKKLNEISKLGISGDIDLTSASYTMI
quantityKind: pKd
Give bare numbers, as −log10 of the molar value.

Note to self: pKd recorded for CC(=O)N[C@H]1C(O)O[C@H](CO)[C@@H](O[C@@H]2O[C@H](CO)[C@H](O)[C@H](O)[C@H]2O)[C@@H]1O (stereo partly shown) [LacNAc, N-acetyllactosamine, reference compound] was 3.72

// provenance: paper PMC7515912
